Assignment: determine reported IC50 for the given compounds.
# Tested on: Plasmodium falciparum
# procedure.details: Inhibitory concentration (IC50) against chloroquine-resistant falciparum Indochina W2 in human malaria
# Format: functional, organism-based
# assay.context: Plasmodium falciparum; read-out: IC50
One number for each entry, in µg/mL.

[
  {
    "compound": "COC1CCC(OO)CO1 (stereo unspecified)",
    "recorded.number": 1.05
  },
  {
    "compound": "COC1CCC(CO)OO1 (stereo unspecified)",
    "recorded.number": 0.454
  },
  {
    "compound": "C[C@H]1OC2CCC1OO2 (stereo partly specified)",
    "recorded.number": 13.1
  },
  {
    "compound": "C[C@@H]1OC2CCC1OO2 (stereo partly specified)",
    "recorded.number": 28.8
  },
  {
    "compound": "COC1CC[C@@H]([C@H](C)O)OO1 (stereo partly specified)",
    "recorded.number": 12.3
  }
]

### Prompt Fill in the blank: the reported IC50 of CO[C@H]1CC[C@H](OO)[C@@H](C)O1 is ____.
### Response 3.44
